Reported values: MIC for Aspergillus niger, one per item.
reported.endpoint: MIC

{"columns": ["molecule", "result"],
 "data": [
  ["Cc1cc(C(F)(F)F)c2cnn(SC(F)(Cl)Cl)c2c1Cl [Example 8]", "500 µg/mL"],
  ["FC(F)(F)Oc1ccc2cnn(SC(F)(Cl)Cl)c2c1 [Example 2]", "20 µg/mL"],
  ["FC(Cl)(Cl)Sn1ncc2c(Cl)c(Cl)c(C(F)(F)F)cc21 [Example 17]", "500 µg/mL"],
  ["FC(F)(F)Oc1ccc2c(cnn2SC(F)(Cl)Cl)c1 [Example 5]", "20 µg/mL"],
  ["FC1Oc2cc3c(cnn3SC(F)(Cl)Cl)cc2OC1(F)F (stereo not shown) [Example 4]", "150 µg/mL"],
  ["FC(F)(F)Oc1ccc2c(cnn2SC(F)(Cl)Cl)c1Cl [Example 12]", "50 µg/mL"],
  ["FC(F)(F)Sc1ccc2cnn(SC(F)(Cl)Cl)c2c1 [Example 16]", "< 20 µg/mL"]
]}

====

Reported values: MIC for Aspergillus niger, one per item.

{"columns": ["compound", "MIC"],
 "data": [
  ["FC(F)(F)Sc1ccc2c(cnn2SC(F)(Cl)Cl)c1", "< 20 mg/L"],
  ["FC(F)(F)Oc1ccc2cnn(SC(Cl)(Cl)Cl)c2c1", "20 mg/L"],
  ["Cc1cc2cnn(SC(F)(Cl)Cl)c2c(C)c1C(F)(F)F", "50 mg/L"],
  ["Cc1cc(F)cc2c1cnn2SC(F)(Cl)Cl", "10 mg/L"],
  ["Fc1cccc2c1cnn2SC(F)(Cl)Cl [reference compound]", "500 mg/L"]
]}
